The values you see were collected from PubChem BioAssay (NCI).

- Tested on: MDA-MB-231 breast
- experiment.description: NCI tumour cell line growth inhibition, 48 h
readout.kind: TGI

Examples from the recorded data:
- compound: "CC(SC(=S)N(C)C)C(=O)Nc1nnc(-c2ccc(Cl)cc2)o1 (centres undefined)"
  readout.kind: "TGI"
  endpoint.value: "> 100 µM"
- compound: "CC(=O)Oc1c(C)cc2c(c1C)C(C)(C)CN2C(=O)C(C)(C)C"
  readout.kind: "TGI"
  endpoint.value: "> 100 µM"
- compound: "COc1ccc(-c2c(-c3cc4c(c(OC)c3OC)OCO4)noc2N)cc1"
  readout.kind: "TGI"
  endpoint.value: "> 62.9 µM"
- compound: "CCCCCCCC(=O)SCC/C=C/[C@@H]1CC(=O)NCc2cccc(n2)C2=N[C@@](C)(CS2)C(=O)N[C@@H](C(C)C)C(=O)O1"
  readout.kind: "TGI"
  endpoint.value: "> 19.8 µM"
- compound: "COc1ccc2c3c(ccc2c1)NC(C(=O)O)CC3 (centres undefined)"
  readout.kind: "TGI"
  endpoint.value: "> 100 µM"
- compound: "C=C(C)[C@@H]1CC[C@]2(C(=O)N3CCN(C)CC3)CC[C@]3(C)[C@H](CC[C@@H]4[C@@]5(C)C/C(=C/c6ccncc6)[C@H](O)C(C)(C)[C@@H]5CC[C@]43C)[C@@H]12"
  readout.kind: "TGI"
  endpoint.value: "19.3 µM"
- compound: "O=c1oc2cc(O)ccc2c(O)c1C(c1ccc2ccccc2c1)c1c(O)c2ccc(O)cc2oc1=O"
  readout.kind: "TGI"
  endpoint.value: "> 100 µM"
- compound: "O=C1CSC(c2c[nH]c3ccccc23)N1c1cccc([N+](=O)[O-])c1 (centres undefined)"
  readout.kind: "TGI"
  endpoint.value: "> 100 µM"

Hey, can you go through the list below and give me TGI for every item?
1. CCCCCCCCCCCCCCCCOP(=O)(O)OP(=O)(O)OCC1OC(n2cnc3c(N)ncnc32)C(O)C1O (centres undefined)
2. O=C(CC(C(=O)c1cccs1)c1ccsc1)c1ccc(Cl)cc1 (centres undefined)
3. SCc1ccc(-c2ccc(CS)cc2)cc1
4. NS(=O)(=O)c1ccc(C(=O)O)cc1
5. Cc1cc2nn(C3CCCCO3)nc2cc1C (centres undefined)
6. CC(=O)O[C@H]1C[C@H]2[C@@H]([C@H](OC(C)=O)C[C@@H]3CC4(CC[C@@]32C)OOC2(CCCCC2)OO4)[C@@H]2CC[C@H]([C@H](C)CCC(N)=O)[C@@]12C
7. CC(/C=C/C=C\C=C\C=C(/C)C(=O)NC(C)CO)=C\C(C)C(O)/C(C)=C/C(C)CCc1ccccc1 (centres undefined)

1. > 100 µM
2. > 100 µM
3. 31 µM
4. > 100 µM
5. > 100 µM
6. 4.22 µM
7. 45.2 µM

Count: 4. Required value per item: TGI.
1. Cc1cccc(-c2cccc(COCc3cccc(-c4cccc(CO)n4)n3)n2)n1
2. O=C(/C=C/c1ccccc1)Nc1ncc(Cc2ccccc2)s1
3. O=C1C(=Cc2cccc(Cl)c2)N=C(c2ccccc2)N1n1c(-c2ccccc2)nc2ccccc2c1=O
4. CCOC(=O)CC[C@H](NC(=O)c1ccc(CNc2nc3cc(C(F)(F)F)ccc3nc2C(=O)OCC)cc1)C(=O)OCC

1: > 50 µM; 2: 9.28 µM; 3: > 100 µM; 4: > 48.4 µM
